- assayed-target: T1, Scribble PDZ1 (His-tagged, aa 719-829) (human, UniProt Q14160 719-829)
- T1 construct: human Scribble, PDZ1, aa 719-829, in pETM-11; Used for MST and ITC; removal of the His tag is told only for the NMR samples; also called Scribble PDZ1 wild type; source: E. coli BL21 Gold (DE3), purified (Ni2+ Sepharose), dialysed
- T1 sequence (Q14160 719-829): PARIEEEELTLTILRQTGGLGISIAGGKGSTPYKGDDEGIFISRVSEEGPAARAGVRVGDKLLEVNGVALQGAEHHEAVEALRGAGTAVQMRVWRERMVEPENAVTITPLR
- experiment-summary: MST; FITC-labeled peptide fixed at 25-50 nM, protein (Scribble PDZ1 or DLG1 PDZ2) in a 1:1 dilution series; 50 mM Tris-HCl pH 7.4, 0.1% Tween-20; thermophoresis and T-Jump signal; n = 3
- condition-notes: both partners purified
Square brackets hold non-standard residues; d marks the D form. Ends that are not written are not given here. pS = N[C@@H](COP(=O)(O)O)C(=O)O
measurement-kind: pKd
Lab note — pKd values are minus log10 of concentrations in M.

{"binder": "VRKLPSTTL (also: FITC label, position not given here, C-terminal tail of human RPS6KA1; also called unphosphorylated RPS6KA1 peptide; source: synthetic peptide (FITC-labeled)) [FITC-labeled RPS6KA1 peptide, unphosphorylated (VRKLPSTTL)]", "measurement-kind": "pKd", "recorded-number": 6.00}

Alright, here's another binder for you.
What value of measured pKd is listed for VRKLP[pS]TTL (also: FITC label, position not given here, C-terminal tail of human RPS6KA1; also called phosphorylated RPS6KA1; source: synthetic peptide (FITC-labeled)) [FITC-labeled RPS6KA1 peptide, p-3 phosphorylated (VRKLPpSTTL)] ?
6.41
